# Tested on: HCT-116
# ASSAY_COMMENT: NCI tumour cell line growth inhibition, 48 h
The source made the active and inactive calls. Rule as the data show it: active = GI50 up to about 1.1 µM and inactive = higher.
Labels: t = active, f = inactive

COMPOUND	ASSIGNED_LABEL
CCOC(=O)CNC(SC)=C(C#N)C#N	f
Oc1c2c(c(O)c3ccccc13)C1(N=N2)c2ccccc2Oc2ccccc21	f
Cn1c(=O)sc2cc(C(=S)N3CCCCC3)ccc21	f
CCCCCCCCCCCCC(SCCNC(=O)CCNC(=O)C(O)C(C)(C)COP(=O)(O)OP(=O)(O)OCC1OC(n2cnc3c(N)ncnc32)C(O)C1OP(=O)(O)O)C(=O)NCC(N)=O (centres undefined)	f
O=[N+]([O-])c1cccc(C2=NN(c3ccccc3)C3c4ccccc4OCC23)c1 (centres undefined)	f
O=C(OCC(Cl)(Cl)Cl)N1CC[C@H](C2CCCCC2)C1	f
CCOS(=O)(=O)c1ccc(-c2c3nc(c(-c4ccc(S(=O)(=O)OCC)cc4)c4ccc([nH]4)c(-c4ccc(S(=O)(=O)OCC)cc4)c4nc(c(-c5ccc(S(=O)(=O)OCC)cc5)c5ccc2[nH]5)C=C4)C=C3)cc1	f
O=C(c1ccc(Cl)cc1Cl)N(C(=O)N1CCCCC1)c1ccccc1	f
Cc1cc(C)nc(NCCC(O)(P(=O)(O)O)P(=O)(O)O)n1	f
CC(=O)CC1(OC(=O)C2C(C=C(C)C)C2(C)C)C(=O)Nc2ccccc21 (centres undefined)	f
CCOC(=O)[C@@H](NC(=O)OC(C)(C)C)[C@@H](O)C(=O)OCC	f
COc1cc(/C=C/C2=NN(c3cccc(S(=O)(=O)O)c3)C3(C2)C(Cl)C(=O)N3c2nc3ccccc3s2)ccc1O (centres undefined)	f
O=C(O)C#CCO	f
NC(=S)N1N=C(c2ccccc2O)CC1c1ccccc1 (centres undefined)	f
COC(=O)NNC(c1ccc(Cl)cc1)c1ccc(Cl)cc1	f
COc1cc2cc(C(=O)N3CC(CCl)c4c3cc(NC(=O)C(C)Nc3c([N+](=O)[O-])cc(C(=O)NCCN(C)C)cc3[N+](=O)[O-])c3ccccc43)[nH]c2c(OC)c1OC (centres undefined)	t
COc1cc(O)c(/C=N/N=C(\N)NO)c(OC)c1	f
C/C(=N\O)c1cccc(Nc2nc3ccccc3c3occc23)c1	f
COc1ccccc1-c1cc(=O)c2ccccc2[nH]1	f
C=C(Br)COc1ccc2c(C)cc(=O)oc2c1	f
O=C(N/N=C\C=C\c1ccc([N+](=O)[O-])o1)C(=O)N/N=C\C=C\c1ccc([N+](=O)[O-])o1	f
C=CCNC(=O)/C(Cc1cc(Br)c(OC)c(Br)c1O)=N\O	f
COc1ccc(Cc2nc3cc(C(F)(F)F)ccc3n2C[C@@H]2CCCN3CCCCC23)cc1 (some centres undefined)	f
CSc1ccc2c(c1)C(N1CCN(C)CC1)Cc1ccccc1S2 (centres undefined)	f

###

# System: NCI-H460
# ASSAY_COMMENT: NCI tumour cell line growth inhibition, 48 h
Active and inactive are the calls of the source. Rule as the data show it: active = GI50 up to about 1.1 µM and inactive = higher.

COMPOUND	GI50
O=C(N/N=C1/C(=O)N(c2ccc(Cl)cc2Cl)C(=O)C(=O)C1c1nc2ccccc2o1)c1ccccc1O (centres undefined)	44.8 µM (inactive)
O=C(/C(Cl)=C/c1ccccc1)c1ccccc1	8.71 µM (inactive)
COc1ccc2c(=O)c(-c3cc(OC)c(OC)cc3OC)coc2c1	2.48 µM (inactive)
O=C(NN1C(=O)CS(=O)(=O)C1c1ccc(Cl)c(Cl)c1)c1ccncc1 (centres undefined)	> 100 µM (inactive)
Cc1nc2ccccc2n1C(=O)c1c(F)c(F)c(F)c(F)c1F	5.09 µM (inactive)
C[C@]12CC[C@H]3[C@@H](CCC4=CC(=O)CC[C@@]43C)[C@@H]1CC[C@@H]2C(=O)COS(=O)(=O)c1ccc(Br)cc1	10.1 µM (inactive)
COc1cc2c(cc1OC)C(=O)N(c1ccc(O)cc1)C2	> 100 µM (inactive)
CC1(C)CC[C@]2(C(=O)O)CCC3(C)C(=CCC4[C@@]5(C)CC[C@H](OC6OCC(O)C(O)C6OC6OC(CO)C(O)C(O)C6O)C(C)(C)C5CC[C@]43C)C2C1 (some centres undefined)	2.1 µM (inactive)
CC1=C(C(=O)NCCCN(CCO)CCO)CC(C(=O)NCCCN(CCO)CCO)=C(C)N1	> 100 µM (inactive)
